Hello, the source for this data is ChEMBL document CHEMBL1201862, in case you need it.

# Test system: LOX IMVI
# protocol summary: NCI tumour cell line growth inhibition, 48 h
The source made the active and inactive calls. No stated cut-off is given here; in the data, active = GI50 up to about 1.1 µM and inactive = higher.
Choose the fitting class; nothing outside y for active, n for inactive is accepted.

Some solved entries appear below for comparison.
CC1(C)CC[C@]2(C(=O)O)CC[C@]3(C)C(=CC[C@@H]4[C@@]5(C)CC[C@H](OC6OC(CO)C(O)C(O)C6O)C(C)(C)[C@@H]5CC[C@]43C)[C@@H]2C1 (some centres undefined) ... n
C/C(=C\CNc1ncnc2c1ncn2C1CCCCO1)COP(=O)(O)O (centres undefined) ... n
N=C1C(=N)c2ccccc2-c2ccccc21 ... y
N#CC(C#N)=Cn1c(=S)[nH]c2ccc([N+](=O)[O-])cc21 ... n
CC(=O)OCOC(=O)CN(CC(=O)OCOC(C)=O)Cc1cc2c(cc1OC(C)=O)Oc1cc(OC(C)=O)c(CN(CC(=O)OCOC(C)=O)CC(=O)OCOC(C)=O)cc1C21OC(=O)c2ccccc21 ... y
O=C(Nc1ccn(CCI)c(=O)n1)c1ccccc1 ... n
O=c1c(-c2ccccc2)c(O)nc2[nH]c3ccccc3n12 ... n
O=C1OC(c2ccccc2)=N/C1=C\c1ccc2ccccc2c1 ... n

Alright, here's another compound for you.
Ask | Just curious, what result did COC(=O)Cc1cc(O)c2c(c1O)C(=O)c1ccccc1C2=O get here?
Reply | n

====

# Tested on: SK-OV-3
# protocol summary: NCI tumour cell line growth inhibition, 48 h
Calls of active or inactive are those of the source. No stated cut-off is given here; in the data, active = GI50 up to about 1.1 µM and inactive = higher.
reported metric: GI50

Some entries whose results are on file:
C[C@]12CC[C@H]3[C@@H](CC=C4C[C@@H](O)CC[C@@]43C)[C@@H]1C[C@H](N1CCOCC1)[C@@H]2O ... > 100 µM (inactive)
COC(=O)/C(=C/c1ccc(OC)cc1)NC(=O)c1ccccc1 ... > 100 µM (inactive)
CC(C)=CCC/C(=C\CC/C(=C\CCc1ccoc1)C(=O)O)C(=O)O ... > 100 µM (inactive)
COCCn1cnc2c(Cl)nc(Nc3ccccc3)nc21 ... 37.2 µM (inactive)

Attention now turns to another entry.
Ask | Quick one: GI50 for O=Nn1c2ccccc2c2cc([N+](=O)[O-])ccc21 ?
Reply | 16.1 µM (inactive)

====

# Test system: SK-MEL-5
# protocol summary: NCI tumour cell line growth inhibition, 48 h
Activity calls are given as the source filed them. Cut-off read from the data, not from the text of the source: active = GI50 up to about 1.1 µM and inactive = higher. Where a SMILES comes first, the peptide text is derived from it. The star is where a group is joined. Boc = CC(C)(C)OC(=O)*; tBu = CC(C)(C)*
Classes to choose from: y = active, n = inactive

O=C(O)c1ccc(C(=O)c2ccccc2C(=O)O)cc1C(=O)O ... n
CC(=O)NC(Cc1ccccc1)C(=S)N1CCCC1 (stereo not given) ... n
COC(=O)c1ccccc1C1CN=NC12Cc1ccc(C)c(C)c1C2=O (stereo not given) ... n
C[C@H]1C2Cc3cc(N)ccc3[C@@]1(C)CCN2CCc1ccccc1 ... n
COc1cc(OC)c(OC)cc1/C=C/c1ccc2ccccc2n1 ... n
CC[C@@]1(OC(=O)CN(C)C)C(=O)OCc2c1cc1n(c2=O)Cc2cc3ccccc3nc2-1 ... y

Ask | Name the outcome recorded for O=[N+]([O-])c1ccc2[nH]ncc2c1Cl in the assay.
Reply | n

Ask | What was the test verdict on COc1ccc(CNC2=N/C(=C\c3ccccc3Cl)C(=O)N2C)cc1 ?
Reply | n

Ask | // return assay outcome for C[n+]1c2ccccc2cc2c(CNC(CCCNC(=N)N)C(=O)O)cccc21 (stereo not given)
Reply | n

Ask | Recorded call for [O-][S+](CC1(O)CCCCC1)c1ccccc1 (stereo not given) ?
Reply | n

Ask | Test call, this molecule: C=CC(C)(C)NC(C(=O)N1CCC[C@H]1c1nc(-c2nc(C(=O)OCC=C(C)C)c(C)o2)c(C)o1)C(C)C (stereo not given in full)
Reply | n

Ask | How did this test come out for CCOC(=O)c1cn2c(n1)sc1cc(C)c(C)cc12 ?
Reply | n

Ask | // outcome(item) with item = CCOC(=O)/C=C(/C(=O)OCC)n1cc(C)c(=O)n(/C(=C/C(=O)OCC)C(=O)OCC)c1=O
Reply | n

Ask | Recorded test outcome, item CCOC(=O)/C=C(/C(=O)OCC)n1cc(Cl)c(=O)n(CC(=O)OCC)c1=O
Reply | n

Ask | Which outcome was entered for the molecule CSc1nc(NC2OC(COC(C)=O)C(OC(C)=O)C(OC(C)=O)C2OC(C)=O)c(-c2csc(N)n2)c(=O)n1C (stereo not given) in this test?
Reply | n

Ask | Could you kindly confirm the outcome this assay logged for COc1ccc(-c2cc(C3CC3)nc(SCC(=O)O)c2C#N)cc1 ?
Reply | n

Ask | Which result was noted for this molecule in the test: C/C=C1\CC(C(=O)OCC)CCCCCCCCCCC1=O (stereo not given)
Reply | n

Ask | Please let me know the test result on file for C/C(=N\Nc1nc2cccnc2s1)c1ccccn1 .
Reply | y

Ask | Any idea what this test logged for Cc1nc(-c2nc(C)c(C(=O)NNC(=O)C[n+]3ccccc3)s2)sc1C(=O)NNC(=O)C[n+]1ccccc1 ?
Reply | n

Ask | Assay result, entry CC(OC(C)(C)C)C(NC(=O)C(N)CCCCNC(=O)OC(C)(C)C)C(=O)NC(Cc1ccccc1)C(=O)O (stereo not given) (H-Lys(Boc)-Thr(tBu)-Phe-OH; configuration not given here) — outcome?
Reply | n
